# Target entity: T1, MHC class I allele A*0301 monomer (human, biotinylated, bound to streptavidin-coated plate)
# T1 construct: also called A3; HLA-A3
# Measurement notes: iTopia, multiparametric iScore
Hi there, I'd appreciate the recorded iScore for every entry that follows.
Answers are plain numbers.

Look over these answered cases.
Task: Check the records and state iScore for LQGLPHIRV [5T4 9-mer peptide 141]
Result: 0

Task: Check the records and state iScore for AELQGLPHI [5T4 9-mer peptide 140]
Result: 0

Task: Check the records and state iScore for YEINADPRL [5T4 9-mer peptide 202]
Result: 0

New cases:
Task: Check the records and state iScore for DCDPILPPS [5T4 9-mer peptide 172]
Result: 0

These data points were gathered from patent US20090280138A1.
